# assay.procedure: AUCinfinity in CD-1 mouse at 1 mg/kg, iv measured after 24 hrs by LC-MS/MS analysis
# Type: ADME, organism-based
# Set-up: time 24 hrs, dose 1 mg/kg, route iv
# test.context: in vivo
readout.label: AUC(0-inf) (µg·h/mL)
One number for each entry, in µg·h/mL.

Check the records and state AUC(0-inf) for CC(C)(C)c1ccccc1OCC(=O)Nc1ccc(O)cc1
0.214

Turning to the following compound.
Note down AUC(0-inf) recorded for CC(C)(C)c1cccc(C#N)c1OCC(=O)Nc1ccc(O)cc1
0.185

====

What bioavailability was measured for each of the following?
# assay.procedure: Oral bioavailability in CD-1 mouse at 30 mg/kg measured after 24 hrs by LC-MS/MS analysis
# Assay type: ADME, organism-based
# test.context: in vivo
One number for each entry, in %.

// batch mode: one bioavailability value per listed entry
1. CC(C)(C)c1cccc(C#N)c1OCC(=O)Nc1ccc(O)cc1
2. CC(C)(C)c1ccccc1OCC(=O)Nc1ccc(O)cc1

1. 7.05
2. 33.2

Measured values drawn from ChEMBL document CHEMBL5154841 for this set.
